MEASUREMENT CONTEXT: human, in vivo, inhaled or intranasal
READOUT: Tmax

Task: Would you kindly share the measured Tmax for `C[C@@H]1NC(=O)CNC(=O)[C@H](CCC(=O)O)NC(=O)[C@@H]2CCCN2C(=O)[C@H]([C@@H](C)O)NC(=O)[C@H](CCC(=O)O)NC(=O)[C@H](CCCNC(=N)N)NC(=O)[C@H](CCC(N)=O)NC(=O)CNC(=O)[C@@H](N)CSSC[C@@H](C(=O)O)NC(=O)[C@H](Cc2ccc(O)cc2)NC(=O)[C@H](Cc2c[nH]c3ccccc23)NC(=O)[C@@H]2CCCN2C(=O)[C@H](CCCCN)NC(=O)[C@H](C)NC(=O)[C@H](CCC(=O)O)NC1=O` ?
Result: ~5 min
